Sourced from ChEMBL document CHEMBL1909046

Can you tell me log10(IC50) for the items I'm about to list?
# systemUnderTest: Sigma non-opioid intracellular receptor 1 (Homo sapiens, UniProt Q99720)
# Sequence (Q99720 whole entry): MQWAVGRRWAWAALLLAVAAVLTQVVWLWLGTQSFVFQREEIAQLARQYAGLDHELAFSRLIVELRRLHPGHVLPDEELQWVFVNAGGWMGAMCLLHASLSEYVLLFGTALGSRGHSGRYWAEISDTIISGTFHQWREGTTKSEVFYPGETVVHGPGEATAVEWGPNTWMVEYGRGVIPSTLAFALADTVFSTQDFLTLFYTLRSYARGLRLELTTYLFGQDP
# methodDescription: DRUGMATRIX: Sigma1 radioligand binding (ligand: [3H] Haloperidol)
# Assay type: cell membranes, Jurkat, Membrane
# studyConditions: Not Active = under 50% inhibition at 10 µM; read-out: IC50
Scale type: logarithmic (base 10). Underlying IC50 unit: nM.

Exercise: Fill in log10(IC50) for CC(C)(C)NC[C@H](O)COc1cccc2c1CCCC2=O [LEVOBUNOLOL] tested with Sigma non-opioid intracellular receptor 1 (Homo sapiens, UniProt Q99720).
Key: 2.89

Exercise: Quote Sigma non-opioid intracellular receptor 1 (Homo sapiens, UniProt Q99720) log10(IC50) for entry CN(Cc1cc(Br)cc(Br)c1N)C1CCCCC1 [BROMHEXINE] .
Key: 1.79

Exercise: Give measured log10(IC50) for CC(CN1c2ccccc2Sc2ccccc21)N(C)C (stereo unspecified) [PROMETHAZINE] (Sigma non-opioid intracellular receptor 1 (Homo sapiens, UniProt Q99720)).
Key: 2.46

Exercise: Determine reported log10(IC50) for CN(C)CCC=C1c2ccccc2COc2ccccc21 [DOXEPIN] ; test system: Sigma non-opioid intracellular receptor 1 (Homo sapiens, UniProt Q99720).
Key: 2.80

Exercise: Enter log10(IC50) (test system Sigma non-opioid intracellular receptor 1 (Homo sapiens, UniProt Q99720)) for CC#C[C@]1(O)CC[C@H]2[C@@H]3CCC4=CC(=O)CCC4=C3[C@@H](c3ccc(N(C)C)cc3)C[C@@]21C [MIFEPRISTONE]
Key: 4.42

Exercise: System Sigma non-opioid intracellular receptor 1 (Homo sapiens, UniProt Q99720). Read-out log10(IC50). Item CCOc1cc(N)c(Cl)cc1C(=O)NCC1CN(Cc2ccc(F)cc2)CCO1 (stereo unspecified) [MOSAPRIDE] . Report value.
Key: 2.49

----------
# systemUnderTest: UniProt P12530
# Sequence (P12530 whole entry): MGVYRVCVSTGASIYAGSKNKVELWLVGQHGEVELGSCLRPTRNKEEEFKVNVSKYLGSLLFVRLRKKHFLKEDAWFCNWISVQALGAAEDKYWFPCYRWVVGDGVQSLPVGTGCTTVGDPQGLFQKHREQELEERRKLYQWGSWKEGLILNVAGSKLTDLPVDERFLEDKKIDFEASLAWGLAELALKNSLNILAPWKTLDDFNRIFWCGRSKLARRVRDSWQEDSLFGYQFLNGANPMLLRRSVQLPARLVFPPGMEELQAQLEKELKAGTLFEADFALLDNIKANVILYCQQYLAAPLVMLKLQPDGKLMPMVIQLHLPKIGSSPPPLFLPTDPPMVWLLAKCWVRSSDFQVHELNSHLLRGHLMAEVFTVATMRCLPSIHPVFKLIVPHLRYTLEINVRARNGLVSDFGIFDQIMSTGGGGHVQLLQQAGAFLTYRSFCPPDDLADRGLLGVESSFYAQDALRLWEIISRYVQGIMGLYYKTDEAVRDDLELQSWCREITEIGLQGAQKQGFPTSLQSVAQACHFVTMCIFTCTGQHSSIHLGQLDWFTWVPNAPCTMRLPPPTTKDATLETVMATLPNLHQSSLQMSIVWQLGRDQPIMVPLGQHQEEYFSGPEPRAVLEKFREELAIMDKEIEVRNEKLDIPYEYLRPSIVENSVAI
# methodDescription: biochemical
# Format: tissue-based, Reticulocytes
# studyConditions: reticulocytes
testReadout: IC50

OC[C@H]1O[C@@H]2O[C@H]3[C@H](O)[C@@H](O)[C@@H](O[C@H]4[C@H](O)[C@@H](O)[C@@H](O[C@H]5[C@H](O)[C@@H](O)[C@@H](O[C@H]6[C@H](O)[C@@H](O)[C@@H](O[C@H]7[C@H](O)[C@@H](O)[C@@H](O[C@H]1[C@H](O)[C@H]2O)O[C@@H]7CO)O[C@@H]6CO)O[C@@H]5CO)O[C@@H]4CO)O[C@@H]3CO [ALFADEX] :: Not Active
Oc1ccccc1 [PHENOL] :: Not Active
NC(=O)NC(=O)Cc1ccccc1 [PHENACEMIDE] :: Not Active

----------
# systemUnderTest: 5-hydroxytryptamine receptor 6 (Homo sapiens, UniProt P50406); further: in other assays of this panel Not Active means under 50% inhibition at 10 µM
# Sequence (P50406 whole entry): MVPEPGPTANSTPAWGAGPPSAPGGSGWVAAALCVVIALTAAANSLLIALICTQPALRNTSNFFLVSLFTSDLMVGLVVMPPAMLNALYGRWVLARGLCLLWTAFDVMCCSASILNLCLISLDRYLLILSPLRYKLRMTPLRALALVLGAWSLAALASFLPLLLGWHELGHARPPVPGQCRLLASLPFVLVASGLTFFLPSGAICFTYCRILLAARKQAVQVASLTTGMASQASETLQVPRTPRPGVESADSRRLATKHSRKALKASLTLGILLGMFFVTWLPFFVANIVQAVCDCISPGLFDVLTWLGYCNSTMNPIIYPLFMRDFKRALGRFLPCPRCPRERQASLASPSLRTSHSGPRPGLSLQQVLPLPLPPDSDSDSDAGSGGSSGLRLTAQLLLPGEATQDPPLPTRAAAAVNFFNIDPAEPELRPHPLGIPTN
# Format: cell membranes, HeLa, Membrane
# studyConditions: hela
testReadout: IC50

CC[C@H](C)C(=O)O[C@H]1CCC=C2C=C[C@H](C)[C@H](CC[C@@H]3C[C@@H](O)CC(=O)O3)[C@H]21 :: Not Active
CS(=O)(=O)c1ccc(C2=C(c3ccccc3)C(=O)OC2)cc1 :: Not Active
O=C(c1ccccc1)c1ccc2n1CCC2C(=O)O (centres undefined) :: Not Active
CO[C@H]1O[C@@H]2O[C@@]3(C)CC[C@H]4[C@H](C)CC[C@@H]([C@H]1C)[C@@]24OO3 :: Not Active
Nc1nc(N)c2nc(-c3ccccc3)c(N)nc2n1 :: Not Active
Cc1[nH]c(=O)c(C#N)cc1-c1ccncc1 :: Not Active
Cc1nnc(NS(=O)(=O)c2ccc(N)cc2)s1 :: Not Active
CC(Cl)(Cl)Cl :: Not Active
ClC1=C(Cl)[C@]2(Cl)[C@@H]3[C@@H]4C[C@@H]([C@H]5O[C@@H]45)[C@@H]3[C@@]1(Cl)C2(Cl)Cl :: Not Active
O=C1c2ccccc2C(=O)C1c1ccccc1 :: Not Active

Exercise: // Input: "CC12CCC(CC1)C(C)(C)O2" . Output its IC50 only.
Key: Not Active

Exercise: Determine its reported IC50: CCN(CCO)CCCC(C)Nc1ccnc2cc(Cl)ccc12 (centres undefined) [HYDROXYCHLOROQUINE]
Key: Not Active

Exercise: // Input: "CC[C@H](C)[C@@H](CO[C@@H](Cc1ccccc1)C(=O)N[C@@H](CCS(C)(=O)=O)C(=O)OC(C)C)NC[C@@H](N)CS" . Output its IC50 only.
Key: Not Active

Exercise: Quick one: give measured IC50 for "CC(C)Cc1ccc([C@H](C)C(=O)O)cc1"
Key: Not Active

Exercise: Provide one value: measured IC50 of CC(N)C12CC3CC(CC(C3)C1)C2 (centres undefined)
Key: Not Active

Exercise: Indicate the recorded IC50 value for this compound: "Nc1nc(N)c2nc(CNc3ccc(C(=O)N[C@@H](CCC(=O)O)C(=O)O)cc3)cnc2n1"
Key: Not Active

Exercise: Look up IC50 of "O=C(O)c1ccccc1" and report it.
Key: Not Active

Exercise: Respond only with IC50 recorded for "COC(=O)Nc1nc2ccc(C(=O)c3ccccc3)cc2[nH]1"
Key: Not Active

Exercise: Identify measured IC50 associated with CCOc1cc(N)c(Cl)cc1C(=O)NCC1CN(Cc2ccc(F)cc2)CCO1 (centres undefined) [MOSAPRIDE]
Key: Not Active

----------
# systemUnderTest: Caspase-1 (Homo sapiens, UniProt P29466);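 further: Caspase-1 enzyme inhibition assay with a peptide substrate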; further: in other assays of this panel Not Active means under 50% inhibition at 10 µM
# Sequence (P29466 whole entry): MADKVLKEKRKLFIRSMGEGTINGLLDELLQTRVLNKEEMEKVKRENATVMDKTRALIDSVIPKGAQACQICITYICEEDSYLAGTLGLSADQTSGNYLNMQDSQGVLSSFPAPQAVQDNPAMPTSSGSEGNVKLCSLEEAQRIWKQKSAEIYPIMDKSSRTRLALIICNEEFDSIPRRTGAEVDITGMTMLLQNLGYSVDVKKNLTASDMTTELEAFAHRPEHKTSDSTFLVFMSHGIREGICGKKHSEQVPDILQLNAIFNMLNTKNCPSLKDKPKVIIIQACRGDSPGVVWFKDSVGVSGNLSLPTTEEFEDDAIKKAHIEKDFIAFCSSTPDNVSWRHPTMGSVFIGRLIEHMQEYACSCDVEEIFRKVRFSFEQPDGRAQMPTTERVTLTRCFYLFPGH
# Design: species or system Escherichia coli
testReadout: IC50

CN(CCOc1ccc(C[C@H](Nc2ccccc2C(=O)c2ccccc2)C(=O)O)cc1)c1ccccn1 :: Not Active
O=C1CN(/N=C/c2ccc([N+](=O)[O-])o2)C(=O)N1 :: Not Active
Cc1[nH]c(=O)c(C#N)cc1-c1ccncc1 :: Not Active
O=c1[nH]c2ccccc2c2ccccc12 :: Not Active
Oc1ncnc2[nH]ncc12 :: Not Active

Now look at this one.
Exercise: Fill in reported IC50 for this entry: "Cc1cnc(NC(=O)C2=C(O)c3ccccc3S(=O)(=O)N2C)s1"
Key: Not Active

----------
# systemUnderTest: 5-hydroxytryptamine receptor 4 (Cavia porcellus); further: in other assays of this panel Not Active means under 50% inhibition at 10 µM
# Sequence (O70528 whole entry): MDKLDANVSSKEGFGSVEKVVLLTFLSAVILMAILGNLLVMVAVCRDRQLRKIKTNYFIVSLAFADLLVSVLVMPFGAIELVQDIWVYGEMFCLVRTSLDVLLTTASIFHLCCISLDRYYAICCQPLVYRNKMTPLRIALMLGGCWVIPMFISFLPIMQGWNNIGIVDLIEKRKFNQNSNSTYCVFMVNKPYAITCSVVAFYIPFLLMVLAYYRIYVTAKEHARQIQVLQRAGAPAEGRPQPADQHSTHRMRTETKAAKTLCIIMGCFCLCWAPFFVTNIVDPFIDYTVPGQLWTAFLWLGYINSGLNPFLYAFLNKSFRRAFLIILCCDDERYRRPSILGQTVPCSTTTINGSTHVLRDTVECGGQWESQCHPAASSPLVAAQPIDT
# Format: cell membranes, Dunkin-Hartley, Striatum, Membrane
testReadout: IC50

Examples with answers:
CC(=O)Nc1ccc2c(c1)Cc1ccccc1-2 :: Not Active
COC(=O)Nc1nc2ccc(C(=O)c3ccccc3)cc2[nH]1 :: Not Active
C[C@@H]1[C@H](O)[C@@H](C)/C=C/C=C/C=C/C=C/C=C/C=C/C=C/[C@H](O[C@@H]2O[C@H](C)[C@@H](O)[C@H](N)[C@@H]2O)C[C@@H]2O[C@](O)(C[C@@H](O)C[C@@H](O)[C@H](O)CC[C@@H](O)C[C@@H](O)CC(=O)O[C@H]1C)C[C@H](O)[C@H]2C(=O)O :: Not Active
CS(=O)(=O)c1ccc(C2=C(c3ccccc3)C(=O)OC2)cc1 :: Not Active
COc1ccc(Cl)cc1C(=O)NCCc1ccc(S(=O)(=O)NC(=O)NC2CCCCC2)cc1 [GLYBURIDE] :: Not Active
C=CCN1CC[C@]23c4c5ccc(O)c4O[C@H]2/C(=N/N=C2\CC[C@@]4(O)[C@H]6Cc7ccc(O)c8c7[C@@]4(CCN6CC=C)[C@H]2O8)CC[C@@]3(O)[C@H]1C5 :: Not Active
CC(C)(C#N)c1cc(Cn2cncn2)cc(C(C)(C)C#N)c1 :: Not Active
CCN1C[C@]2(COC)[C@H](O)C[C@H](OC)[C@@]34[C@@H]5C[C@@]6(O)[C@H](OC(=O)c7ccccc7)[C@@H]5[C@@](OC(C)=O)([C@@H]([C@H](OC)[C@H]23)[C@@H]14)[C@@H](O)[C@@H]6OC :: Not Active
NC(=O)NC(=O)Cc1ccccc1 [PHENACEMIDE] :: Not Active
C[C@]12CC[C@@H](O)C[C@@H]1CC[C@@H]1[C@@H]2CC[C@]2(C)C(=O)CC[C@@H]12 :: Not Active

Exercise: Quote 5-hydroxytryptamine receptor 4 (Cavia porcellus) IC50 for entry "CC12CCC(CC1)C(C)(C)O2" .
Key: Not Active

Exercise: Enter IC50 (test system 5-hydroxytryptamine receptor 4 (Cavia porcellus)) for "COc1cc([C@@H]2c3cc4c(cc3[C@H](O)[C@H]3COC(=O)[C@H]23)OCO4)cc(OC)c1OC"
Key: Not Active

Exercise: State IC50 on 5-hydroxytryptamine receptor 4 (Cavia porcellus). Entry: CC12CCC(CC1=O)C2(C)C (configuration not stated)
Key: Not Active

Exercise: Report value only: IC50, 5-hydroxytryptamine receptor 4 (Cavia porcellus), "Cc1cn([C@H]2C=C[C@@H](CO)O2)c(=O)[nH]c1=O"
Key: Not Active

Exercise: For 5-hydroxytryptamine receptor 4 (Cavia porcellus), give IC50 of the listed compound: COc1cc(NC(C)CCCN)c2ncccc2c1 (configuration not stated)
Key: Not Active

Exercise: Please report IC50 with 5-hydroxytryptamine receptor 4 (Cavia porcellus) for item "COC(=O)C[C@](O)(CCC(C)(C)O)C(=O)O[C@@H]1C(OC)=C[C@]23CCCN2CCc2cc4c(cc2[C@H]13)OCO4" .
Key: Not Active

Exercise: Fill in: IC50 on 5-hydroxytryptamine receptor 4 (Cavia porcellus), entry O=C(O)CNCP(=O)(O)O [GLYPHOSATE]
Key: Not Active

Exercise: Output reported IC50 of the compound NCC(CC(=O)O)c1ccc(Cl)cc1 (configuration not stated) on 5-hydroxytryptamine receptor 4 (Cavia porcellus).
Key: Not Active

Exercise: Report measured IC50 on 5-hydroxytryptamine receptor 4 (Cavia porcellus); entry: "CCC(C)(C)C(=O)O[C@H]1C[C@@H](C)C=C2C=C[C@H](C)[C@H](CC[C@@H]3C[C@@H](O)CC(=O)O3)[C@H]21"
Key: Not Active

Exercise: Please tell me the measured IC50 for "C=CCO" ; system: 5-hydroxytryptamine receptor 4 (Cavia porcellus). Further: in other assays of this panel Not Active means under 50% inhibition at 10 µM.
Key: Not Active

Exercise: Fill: IC50 (5-hydroxytryptamine receptor 4 (Cavia porcellus)) for this compound "O=C1CN(/N=C/c2ccc([N+](=O)[O-])o2)C(=O)N1"
Key: Not Active

Exercise: Report value: IC50, system: 5-hydroxytryptamine receptor 4 (Cavia porcellus), compound: CC(C)NCC(O)COc1ccc(CC(N)=O)cc1 (configuration not stated); further: in other assays of this panel Not Active means under 50% inhibition at 10 µM
Key: Not Active

Exercise: State measured IC50 of the compound "O=c1[nH]cnc2c1ncn2[C@H]1CC[C@@H](CO)O1" with 5-hydroxytryptamine receptor 4 (Cavia porcellus).
Key: Not Active

Exercise: Report IC50 from 5-hydroxytryptamine receptor 4 (Cavia porcellus) testing of "O=C(OC[C@H]1O[C@@H](OC(=O)c2cc(O)c(O)c(OC(=O)c3cc(O)c(O)c(O)c3)c2)[C@H](OC(=O)c2cc(O)c(O)c(OC(=O)c3cc(O)c(O)c(O)c3)c2)[C@@H](OC(=O)c2cc(O)c(O)c(OC(=O)c3cc(O)c(O)c(O)c3)c2)[C@@H]1OC(=O)c1cc(O)c(O)c(OC(=O)c2cc(O)c(O)c(O)c2)c1)c1cc(O)c(O)c(OC(=O)c2cc(O)c(O)c(O)c2)c1"
Key: Not Active
